# System: Hepatitis B virus
# runDescription: Antiviral activity against HBV infected in human HepG2(2.2.15) cells assessed as inhibition of viral replication after 2 days
# Format: functional, organism-based
# measurementParameters: HepG2 2.2.15, 48 h
In this section we review reported EC50 values for a set of compounds.
Respond with the bare value in µg/mL.

Problem: Given the compound `O=c1[nH]c(=O)n([C@H]2C[C@H](F)[C@@H](CO)O2)cc1I` , what is its reported EC50?
Solution: 5

Problem: Okay, and `O=c1[nH]c(=O)n([C@H]2C[C@@H](Cl)[C@@H](CO)O2)cc1F` ?
Solution: 10

Problem: Okay, and `Cc1cn([C@H]2C[C@H](Cl)[C@@H](CO)O2)c(=O)[nH]c1=O` ?
Solution: 10

Problem: Okay, and `O=c1[nH]c(=O)n([C@H]2C[C@H](F)[C@@H](CO)O2)cc1CO` ?
Solution: 5

Source listed as ChEMBL document CHEMBL1268901.
